protocol.summary: pharmacokinetic testing of indoximod salts in capsule formulation in rats
Type: in vivo
test.conditions: capsules, 500 μmol/kg, phosphate
readout.type: Cmax (µM)
Numbers only; they are read as µM.

Query string: Identify measured Cmax corresponding to Cn1cc(C[C@@H](N)C(=O)O)c2ccccc21 [indoximod H3PO4, phosphate]
Result string: 37.2

###

protocol.summary: pharmacokinetic testing of indoximod prodrug salts in solid capsule formulation in cynomolgous monkeys
test.conditions: indoximod; cynomolgous monkeys, oral capsules; dose 275 μmol/kg; salt form free base
readout.type: Cmax

Query string: Identify measured Cmax corresponding to Cn1cc(C[C@@H](N)C(=O)O)c2ccccc21 [indoximod, 1-methyl-D-tryptophan, reference compound]
Result string: 17.5 µM

###

protocol.summary: pharmacokinetic testing of indoximod prodrug salts in solid capsule formulation in rats
Assay type: in vivo
test.conditions: Table 10.2; indoximod; rats, oral capsules; dose 37 μmol/kg; salt form free base
readout.type: Cmax (µM)
Numbers only; they are read as µM.

Query string: Identify measured Cmax corresponding to Cn1cc(C[C@@H](N)C(=O)O)c2ccccc21 [indoximod, 1-methyl-D-tryptophan, reference compound]
Result string: 15.9

###

protocol.summary: pharmacokinetic testing of indoximod prodrug salts in solid capsule formulation in rats
Assay type: in vivo
test.conditions: rat, plasma, po, 500 umol/kg
readout.type: Cmax (µM)
Numbers only; they are read as µM.

Query string: Identify measured Cmax corresponding to Cn1cc(C[C@@H](N)C(=O)O)c2ccccc21 [indoximod, 1-methyl-D-tryptophan, reference compound]
Result string: 76.2

###

protocol.summary: pharmacokinetic testing of indoximod salts in capsule formulation in rats
Format: in vivo
test.conditions: capsules, 37 μmol/kg
Where a name gives a salt, the structure may show the parent alone.
readout.type: Cmax (µM)
Numbers only; they are read as µM.

Query string: Identify measured Cmax corresponding to Cn1cc(C[C@@H](N)C(=O)O)c2ccccc21 [indoximod HCl]
Result string: 9.5

###

protocol.summary: pharmacokinetic testing of indoximod prodrugs in liquid formulation in mice
test.conditions: mouse, plasma, po, 10 mg/kg
readout.type: half-life (min)
Numbers only; they are read as min.

Query string: Identify measured half-life corresponding to Cn1cc(C[C@@H](N)C(=O)O)c2ccccc21 [indoximod, 1-methyl-D-tryptophan, reference compound]
Result string: 108

###

protocol.summary: pharmacokinetic testing of indoximod prodrug salts in solid capsule formulation in cynomolgous monkeys
test.conditions: monkey, blood, po, 92 umol/kg
readout.type: Cmax (µM)
Numbers only; they are read as µM.

Query string: Identify measured Cmax corresponding to Cn1cc(C[C@@H](N)C(=O)O)c2ccccc21 [indoximod, 1-methyl-D-tryptophan, reference compound]
Result string: 8.2

###

protocol.summary: pharmacokinetic testing of indoximod prodrug salts in solid capsule formulation in cynomolgous monkeys
test.conditions: monkey, blood, po, 875 umol/kg
readout.type: Cmax (µM)
Numbers only; they are read as µM.

Query string: Identify measured Cmax corresponding to Cn1cc(C[C@@H](N)C(=O)O)c2ccccc21 [indoximod, 1-methyl-D-tryptophan, reference compound]
Result string: 27.8

###

protocol.summary: human pharmacokinetics of oral indoximod
Type: in vivo
test.conditions: plasma, ~800 mg/dose
readout.type: AUC(0-inf) (µM·h)
Numbers only; they are read as µM·h.

Query string: Identify measured AUC(0-inf) corresponding to Cn1cc(C[C@@H](N)C(=O)O)c2ccccc21 [indoximod, 1-methyl-D-tryptophan, reference compound]
Result string: 100

###

protocol.summary: pharmacokinetic testing of indoximod prodrugs in liquid formulation in mice
test.conditions: mouse, plasma, po, 100 mg/kg
readout.type: AUC(0-inf) (µM·h)
Numbers only; they are read as µM·h.

Query string: Identify measured AUC(0-inf) corresponding to Cn1cc(C[C@@H](N)C(=O)O)c2ccccc21 [indoximod, 1-methyl-D-tryptophan, reference compound]
Result string: 325

Provenance of the data: patent US20190248739A1
